Hello, the source for this data is patent US9511134B2, in case you need it.

- target entity: DRB1*0401 (Homo sapiens, UniProt P01903+P01911, A100K/A169T/F76Y/I96L/K127E/L162R/M171V/N62H/P40V/Q125Y/R42H/S133A/S149N/S66Y/V115G/V209L/W38E)
- Construct: made in house; host or cells: EBV-transformed homozygous human B cell lines, transfected fibroblasts or single-allele 721.221 transfectants
- method: biochemical
- Type: binding
- test parameters: read-out: IC50 nM to purified HLA DRB1*0401
measurement kind: IC50 (nM)
Report the value in nM with no unit label.

Use the examples below as a reference point.
# smiles data, unit name, IC50
records = [
    ("CSCC[C@H](NC(=O)[C@H](CO)NC(=O)[C@H](CCCCN)NC(=O)[C@H](C)N)C(=O)N[C@@H](CCC(=O)O)C(=O)N[C@@H](Cc1ccc(O)cc1)C(=O)N[C@@H](CC(=O)O)C(=O)N[C@@H](C)C(=O)N[C@H](C(=O)N[C@@H](C)C(=O)N[C@H](C(=O)N[C@H](C(=O)N[C@@H](Cc1c[nH]cn1)C(=O)N[C@@H](CO)C(=O)N[C@@H](Cc1c[nH]c2ccccc12)C(=O)O)[C@@H](C)O)[C@@H](C)O)C(C)C", "nM", 53),
    ("CSCC[C@H](NC(=O)[C@H](CCCNC(=N)N)NC(=O)[C@H](CCSC)NC(=O)[C@@H](N)C(C)C)C(=O)NCC(=O)N[C@@H](CC(=O)O)C(=O)N[C@@H](CC(C)C)C(=O)N[C@@H](Cc1c[nH]cn1)C(=O)N[C@@H](CO)C(=O)N[C@@H](CC(C)C)C(=O)N[C@@H](CCC(N)=O)C(=O)N[C@@H](CC(N)=O)C(=O)N[C@@H](CCCNC(=N)N)C(=O)N[C@@H](CC(N)=O)C(=O)NCC(=O)O", "nM", 448),
]

Field: next compound
Can you share its IC50? I mean this compound: CC[C@H](C)[C@H](NC(=O)[C@H](CC(C)C)NC(=O)[C@H](Cc1c[nH]c2ccccc12)NC(=O)[C@@H](NC(=O)[C@@H](NC(=O)[C@H](CC(N)=O)NC(=O)[C@H](CCCNC(=N)N)NC(=O)[C@H](Cc1ccccc1)NC(=O)[C@H](Cc1ccccc1)NC(=O)[C@H](CO)NC(=O)[C@H](CO)NC(=O)[C@@H](N)CCCCN)C(C)C)C(C)C)C(=O)N[C@@H](CCCCN)C(=O)N[C@@H](CCCCN)C(=O)N[C@@H](CC(N)=O)C(=O)O
474

* * *

- target entity: DRB1*0405 (Homo sapiens, UniProt P01903+P01911, A100R/A169T/D86S/F76Y/I96L/K127E/L162R/M171V/N62H/P40V/Q125Y/R42H/S133A/S149N/S66Y/V115G/V209L/W38E)
- method: biochemical
- Assay type: binding
- test parameters: read-out: IC50 nM to purified HLA DRB1*0405
Quick reference for IC50 among some molecules
Report the value in nM with no unit label.

Use the examples below as a reference point.
# smiles data, IC50 (nM)
rows = [
    ("CC[C@H](C)[C@H](NC(=O)[C@H](CCCNC(=N)N)NC(=O)[C@H](C)NC(=O)[C@H](CCCNC(=N)N)NC(=O)[C@H](CO)NC(=O)[C@@H](N)C(C)C)C(=O)N[C@@H](CC(=O)O)C(=O)N[C@@H](C)C(=O)N[C@@H](CCCNC(=N)N)C(=O)N[C@H](C(=O)N[C@@H](CC(=O)O)C(=O)N[C@@H](Cc1ccccc1)C(=O)N[C@@H](CCC(=O)O)C(=O)N[C@@H](CO)C(=O)NCC(=O)O)[C@@H](C)CC", 3010),
    ("CC[C@H](C)[C@H](NC(=O)[C@H](CO)NC(=O)[C@H](CCC(N)=O)NC(=O)[C@H](CCC(=O)O)NC(=O)[C@H](CC(=O)O)NC(=O)[C@H](CCCNC(=N)N)NC(=O)CNC(=O)[C@H](CO)NC(=O)[C@@H](NC(=O)[C@@H](NC(=O)[C@H](CC(C)C)NC(=O)[C@H](CCC(N)=O)NC(=O)[C@@H](NC(=O)[C@@H](N)CC(C)C)[C@@H](C)CC)[C@@H](C)CC)C(C)C)C(=O)N[C@@H](C)C(=O)O", 460),
]

Can you share its IC50? I mean this molecule: CSCC[C@H](NC(=O)[C@H](CO)NC(=O)[C@@H](NC(=O)[C@H](Cc1ccccc1)NC(=O)[C@H](CC(N)=O)NC(=O)[C@@H](N)C(C)C)C(C)C)C(=O)N[C@@H](CCC(=O)O)C(=O)N[C@@H](Cc1ccccc1)C(=O)N[C@@H](CO)C(=O)N[C@@H](CC(C)C)C(=O)N[C@H](C(=O)N[C@@H](CC(=O)O)C(=O)N1CCC[C@H]1C(=O)N[C@@H](CCCNC(=N)N)C(=O)N[C@@H](CC(C)C)C(=O)O)[C@@H](C)O
7700

* * *

- target entity: DRB4*0101 (Homo sapiens, UniProt P01903+P13762, G164S)
- Construct: made in house; host or cells: EBV-transformed homozygous human B cell lines, transfected fibroblasts or single-allele 721.221 transfectants
- method: biochemical
- Format: binding
- test parameters: IC50 nM to purified HLA DRB4*0101
measurement kind: IC50 (nM)
Report the value in nM with no unit label.

Use the examples below as a reference point.
# smiles data, measurement kind, reading
measured = [
    ("CC[C@H](C)[C@H](N)C(=O)N[C@@H](Cc1ccc(O)cc1)C(=O)N[C@@H](CCC(N)=O)C(=O)N[C@H](C(=O)N[C@@H](CC(C)C)C(=O)N[C@@H](CO)C(=O)N[C@H](C(=O)N[C@@H](Cc1ccc(O)cc1)C(=O)N[C@@H](CO)C(=O)N[C@H](C(=O)N[C@H](C(=O)N[C@@H](C)C(=O)N[C@@H](CO)C(=O)N[C@@H](CO)C(=O)N[C@@H](CC(C)C)C(=O)N[C@@H](C)C(=O)O)C(C)C)[C@@H](C)O)[C@@H](C)CC)[C@@H](C)CC", "IC50", 18),
    ("CC[C@H](C)[C@H](NC(=O)[C@H](CS)NC(=O)[C@@H](NC(=O)[C@H](CCC(N)=O)NC(=O)[C@H](CC(=O)O)NC(=O)[C@H](CO)NC(=O)[C@H](CCCCN)NC(=O)[C@@H](NC(=O)[C@H](CC(C)C)NC(=O)[C@H](CO)NC(=O)[C@@H](N)C(C)C)C(C)C)[C@@H](C)CC)C(=O)NCC(=O)N[C@@H](Cc1ccc(O)cc1)C(=O)N[C@@H](Cc1c[nH]cn1)C(=O)N[C@@H](C)C(=O)O", "IC50", 32),
    ("CSCC[C@H](NC(=O)[C@H](CO)NC(=O)[C@H](CCCCN)NC(=O)[C@H](C)N)C(=O)N[C@@H](CCC(=O)O)C(=O)N[C@@H](Cc1ccc(O)cc1)C(=O)N[C@@H](CC(=O)O)C(=O)N[C@@H](C)C(=O)N[C@H](C(=O)N[C@@H](C)C(=O)N[C@H](C(=O)N[C@H](C(=O)N[C@@H](Cc1c[nH]cn1)C(=O)N[C@@H](CO)C(=O)N[C@@H](Cc1c[nH]c2ccccc12)C(=O)O)[C@@H](C)O)[C@@H](C)O)C(C)C", "IC50", 6340),
    ("CC[C@H](C)[C@H](NC(=O)[C@@H](N)CC(=O)O)C(=O)N[C@@H](CC(C)C)C(=O)N[C@@H](CCSC)C(=O)N[C@@H](CCCNC(=N)N)C(=O)N[C@@H](CCSC)C(=O)N[C@@H](CO)C(=O)N[C@@H](CCCCN)C(=O)N[C@@H](CCSC)C(=O)N[C@@H](CCC(N)=O)C(=O)N[C@@H](CC(C)C)C(=O)NCC(=O)N[C@@H](CO)C(=O)N[C@@H](CO)C(=O)N[C@@H](CO)C(=O)O", "IC50", 11),
    ("CC[C@H](C)[C@H](NC(=O)[C@H](CO)NC(=O)[C@H](CCC(N)=O)NC(=O)[C@H](CCC(=O)O)NC(=O)[C@H](CC(=O)O)NC(=O)[C@H](CCCNC(=N)N)NC(=O)CNC(=O)[C@H](CO)NC(=O)[C@@H](NC(=O)[C@@H](NC(=O)[C@H](CC(C)C)NC(=O)[C@H](CCC(N)=O)NC(=O)[C@@H](NC(=O)[C@@H](N)CC(C)C)[C@@H](C)CC)[C@@H](C)CC)C(C)C)C(=O)N[C@@H](C)C(=O)O", "IC50", 9.9),
]

Can you share its IC50? I mean this compound: CC[C@H](C)[C@H](NC(=O)[C@H](CCCNC(=N)N)NC(=O)[C@@H](NC(=O)[C@H](CO)NC(=O)[C@H](CC(N)=O)NC(=O)[C@H](CC(=O)O)NC(=O)[C@H](CCCCN)NC(=O)[C@H](CO)NC(=O)[C@H](Cc1ccc(O)cc1)NC(=O)[C@@H](NC(=O)[C@H](C)NC(=O)[C@@H](N)Cc1c[nH]c2ccccc12)C(C)C)[C@@H](C)CC)C(=O)NCC(=O)N[C@@H](CO)C(=O)N[C@@H](CCCCN)C(=O)O
19500

Can you share its IC50? I mean this compound: CC[C@H](C)[C@H](NC(=O)[C@@H]1CCCN1C(=O)[C@H](CCCNC(=N)N)NC(=O)[C@@H](NC(=O)[C@H](CCCCN)NC(=O)[C@H](CC(C)C)NC(=O)[C@H](Cc1c[nH]c2ccccc12)NC(=O)[C@H](CCC(=O)O)NC(=O)[C@H](CCSC)NC(=O)[C@H](CC(C)C)NC(=O)[C@H](C)NC(=O)[C@@H](N)CCC(=O)O)[C@@H](C)O)C(=O)N[C@@H](CC(C)C)C(=O)N[C@@H](CO)C(=O)N1CCC[C@H]1C(=O)O
5510

Can you share its IC50? I mean this compound: CC[C@H](C)[C@H](N)C(=O)NCC(=O)N[C@@H](CCCNC(=N)N)C(=O)N[C@@H](Cc1ccccc1)C(=O)N[C@@H](Cc1ccc(O)cc1)C(=O)N[C@H](C(=O)N[C@@H](CCC(N)=O)C(=O)N[C@@H](CCSC)C(=O)N[C@@H](CS)C(=O)N[C@H](C(=O)N[C@@H](CCC(=O)O)C(=O)N[C@@H](CC(C)C)C(=O)N[C@@H](CCCCN)C(=O)N[C@@H](CC(C)C)C(=O)N[C@@H](CO)C(=O)O)[C@@H](C)O)[C@@H](C)CC
990
